- TARGET_OR_SYSTEM: DNA polymerase beta (Homo sapiens)
READOUT: IC50

### Prompt Please report IC50 with DNA polymerase beta (Homo sapiens) for item "C/C(=C\CC[C@H](C)C(=O)O)[C@H]1CC[C@H](C(=O)O)CC1" .
### Response > 200 µM

###

- TARGET_OR_SYSTEM: DNA polymerase lambda (Homo sapiens, UniProt Q9UGP5)
- Sequence (Q9UGP5 whole entry): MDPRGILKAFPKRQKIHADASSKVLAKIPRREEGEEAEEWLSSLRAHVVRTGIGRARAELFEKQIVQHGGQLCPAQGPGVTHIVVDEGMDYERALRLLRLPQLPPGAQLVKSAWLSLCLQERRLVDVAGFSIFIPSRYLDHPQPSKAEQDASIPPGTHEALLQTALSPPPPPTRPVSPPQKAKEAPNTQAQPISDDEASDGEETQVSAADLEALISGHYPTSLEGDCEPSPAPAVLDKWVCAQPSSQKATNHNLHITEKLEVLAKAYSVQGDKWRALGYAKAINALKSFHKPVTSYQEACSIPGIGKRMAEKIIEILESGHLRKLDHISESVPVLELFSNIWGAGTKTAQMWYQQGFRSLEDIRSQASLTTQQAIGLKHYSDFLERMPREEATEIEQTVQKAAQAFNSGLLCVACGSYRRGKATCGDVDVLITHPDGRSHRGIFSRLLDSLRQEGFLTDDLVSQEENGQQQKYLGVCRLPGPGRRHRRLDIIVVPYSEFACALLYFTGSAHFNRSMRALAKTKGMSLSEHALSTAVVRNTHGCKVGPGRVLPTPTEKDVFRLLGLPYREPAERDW
READOUT: IC50 (µM)
# number only, unit µM dropped from output

### Prompt Please report IC50 with DNA polymerase lambda (Homo sapiens, UniProt Q9UGP5) for item "C/C(=C\CC[C@H](C)C(=O)O)[C@H]1CC[C@H](C(=O)O)CC1" .
### Response 91.7
